targetOrTestSystem: T1, naked peptide SMEDYVNFNF (human)
T1 peptide: SMEDYVNFNF
assayProtocol: ELISA naked peptide; scFv 1 ug/mL; repI
attributeMeasured: OD450 (OD)
Respond with the bare value in OD.

Task: Provide only the value of recorded OD450 for Comparative antibody 1 (Comp-1) scFv, SEQ ID NO: 10 from WO2023/037125 A1, His-tagged (scFv) scFv: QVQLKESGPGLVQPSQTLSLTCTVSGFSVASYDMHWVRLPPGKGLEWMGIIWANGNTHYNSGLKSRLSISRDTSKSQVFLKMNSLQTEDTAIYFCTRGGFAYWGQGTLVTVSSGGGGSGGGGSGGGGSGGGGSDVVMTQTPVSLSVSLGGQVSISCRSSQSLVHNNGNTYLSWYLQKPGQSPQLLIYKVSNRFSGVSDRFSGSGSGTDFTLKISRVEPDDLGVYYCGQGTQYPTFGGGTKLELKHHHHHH
Output: 0.02
